Just for reference, ChEMBL document CHEMBL1150415 is where these values come from.

Each entry below carries its reported pIC50.
test system: MC9; assay: Inhibition of PGF2apha production in arachidonic acid-stimulated mouse MC9 cells; assay type: functional, cell-based
pIC50: −log10 of the molar value.
ASSAY READOUT: pIC50

[[record]]
compound = "COc1ccc2cc([C@H](C)C(=O)O)ccc2c1 [NAPROXEN]"
assay_readout = "pIC50"
relation_qualifier = "="
numeric_value = 6.48

[[record]]
compound = "Cc1ccc(-c2cc(C(F)(F)F)nn2-c2ccc(S(N)(=O)=O)cc2)cc1 [CELECOXIB]"
assay_readout = "pIC50"
relation_qualifier = "="
numeric_value = 6.52

[[record]]
compound = "O=C(O)c1ccc(CCCc2c(CCNS(=O)(=O)Cc3ccc(Cl)c(Cl)c3)n(C(c3ccccc3)c3ccccc3)c3ccc(Cl)cc23)cc1 [EFIPLADIB]"
assay_readout = "pIC50"
relation_qualifier = "="
numeric_value = 6.05

[[record]]
compound = "Cc1cccc(C)c1CS(=O)(=O)NCCc1c(CCCc2ccc(C(=O)O)cc2)c2cc(Cl)ccc2n1C(c1ccccc1)c1ccccc1"
assay_readout = "pIC50"
relation_qualifier = "<"
numeric_value = 6.00


----------
assay: Inhibition of cytosolic phospholipase A2alpha by GLU micelle assay
pIC50: −log10 of the molar value.
Each entry below carries its reported pIC50.
ASSAY READOUT: pIC50

[[record]]
smiles_entry = "O=C(O)c1ccc(OCCc2c(CCNS(=O)(=O)Cc3ccc([N+](=O)[O-])cc3)n(C(c3ccccc3)c3ccccc3)c3ccc(Cl)cc23)cc1"
assay_readout = "pIC50"
relation_qualifier = "="
numeric_value = 6.80

[[record]]
smiles_entry = "O=C(O)c1ccc(OCCc2c(CCNS(=O)(=O)Cc3ccccc3)n(C(c3ccccc3)c3ccccc3)c3ccc(Cl)cc23)cc1"
assay_readout = "pIC50"
relation_qualifier = "="
numeric_value = 6.96

[[record]]
smiles_entry = "CN(CCc1c(CCNS(=O)(=O)Cc2ccccc2)n(C(c2ccccc2)c2ccccc2)c2ccc(Cl)cc12)c1ccc(C(=O)O)cc1"
assay_readout = "pIC50"
relation_qualifier = "="
numeric_value = 5.37

[[record]]
smiles_entry = "N#Cc1ccccc1CS(=O)(=O)NCCc1c(CCOc2ccc(C(=O)O)cc2)c2cc(Cl)ccc2n1C(c1ccccc1)c1ccccc1"
assay_readout = "pIC50"
relation_qualifier = "="
numeric_value = 7.22

[[record]]
smiles_entry = "O=C(O)c1ccc(OCCc2c(CCNS(=O)(=O)Cc3ccccc3[N+](=O)[O-])n(C(c3ccccc3)c3ccccc3)c3ccc(Cl)cc23)cc1"
assay_readout = "pIC50"
relation_qualifier = "="
numeric_value = 7.07

[[record]]
smiles_entry = "O=C(O)c1ccc(OCCc2c(CCNS(=O)(=O)Cc3ccncc3)n(C(c3ccccc3)c3ccccc3)c3ccc(Cl)cc23)cc1"
assay_readout = "pIC50"
relation_qualifier = "="
numeric_value = 6.74

[[record]]
smiles_entry = "O=C(O)CCc1ccc(S(=O)(=O)CCc2c(CCNS(=O)(=O)Cc3ccc(Cl)c(Cl)c3)n(C(c3ccccc3)c3ccccc3)c3ccc(Cl)cc23)cc1"
assay_readout = "pIC50"
relation_qualifier = "="
numeric_value = 7.40

[[record]]
smiles_entry = "Cc1ccccc1CS(=O)(=O)NCCc1c(CCCc2ccc(C(=O)O)cc2)c2cc(Cl)ccc2n1C(c1ccccc1)c1ccccc1"
assay_readout = "pIC50"
relation_qualifier = "="
numeric_value = 7.52

[[record]]
smiles_entry = "O=C(O)c1ccc(CCCc2c(CCNS(=O)(=O)Cc3c(F)cccc3F)n(C(c3ccccc3)c3ccccc3)c3ccc(Cl)cc23)cc1"
assay_readout = "pIC50"
relation_qualifier = "="
numeric_value = 7.22

[[record]]
smiles_entry = "O=C(O)c1ccc(CCCc2c(CCNS(=O)(=O)Cc3ccccc3Cl)n(C(c3ccccc3)c3ccccc3)c3ccc(Cl)cc23)cc1"
assay_readout = "pIC50"
relation_qualifier = "="
numeric_value = 7.70

[[record]]
smiles_entry = "O=C(O)CCc1ccc(S(=O)(=O)CCc2c(CCNS(=O)(=O)Cc3c(F)cccc3F)n(C(c3ccccc3)c3ccccc3)c3ccc(Cl)cc23)cc1"
assay_readout = "pIC50"
relation_qualifier = "="
numeric_value = 7.15

[[record]]
smiles_entry = "O=C(O)COc1ccc(Cc2c(CCNS(=O)(=O)Cc3ccccc3)n(C(c3ccccc3)c3ccccc3)c3ccc(Cl)cc23)cc1"
assay_readout = "pIC50"
relation_qualifier = "="
numeric_value = 5.15

[[record]]
smiles_entry = "O=C(O)c1ccc(OCCc2c(CCNS(=O)(=O)Cc3ccc(Cl)c(Cl)c3)n(C(c3ccccc3)c3ccccc3)c3ccc(Cl)cc23)cc1"
assay_readout = "pIC50"
relation_qualifier = "="
numeric_value = 6.82

[[record]]
smiles_entry = "O=C(O)c1ccc(OCCc2c(CCNS(=O)(=O)Cc3cccnc3)n(C(c3ccccc3)c3ccccc3)c3ccc(Cl)cc23)cc1"
assay_readout = "pIC50"
relation_qualifier = "="
numeric_value = 6.66

[[record]]
smiles_entry = "O=C(O)c1ccc(OCCc2c(CCNS(=O)(=O)Cc3cccc([N+](=O)[O-])c3)n(C(c3ccccc3)c3ccccc3)c3ccc(Cl)cc23)cc1"
assay_readout = "pIC50"
relation_qualifier = "="
numeric_value = 6.96

[[record]]
smiles_entry = "O=C(O)c1ccc(CCCc2c(CCNS(=O)(=O)Cc3ccccc3)n(C(c3ccccc3)c3ccccc3)c3ccc(Cl)cc23)cc1"
assay_readout = "pIC50"
relation_qualifier = "="
numeric_value = 7.15

[[record]]
smiles_entry = "N#Cc1ccc(CS(=O)(=O)NCCc2c(CCOc3ccc(C(=O)O)cc3)c3cc(Cl)ccc3n2C(c2ccccc2)c2ccccc2)cc1"
assay_readout = "pIC50"
relation_qualifier = "="
numeric_value = 6.59

[[record]]
smiles_entry = "Cc1cccc(C)c1CS(=O)(=O)NCCc1c(CCS(=O)(=O)c2ccc(C(=O)O)cc2)c2cc(Cl)ccc2n1C(c1ccccc1)c1ccccc1"
assay_readout = "pIC50"
relation_qualifier = "="
numeric_value = 8.40

[[record]]
smiles_entry = "O=C(O)Cc1nc(CCCc2c(CCNS(=O)(=O)Cc3ccccc3)n(C(c3ccccc3)c3ccccc3)c3ccc(Cl)cc23)no1"
assay_readout = "pIC50"
relation_qualifier = "<"
numeric_value = 4.70

